FYI, the data here is from ChEMBL document CHEMBL1127474.

Please go through the items and note down their ED90.
Tested on: Rattus norvegicus
Experiment: In vivo minimum dose administered subcutaneously b.i.d. which decreases the lung cyst count by 90% using PCP model in dexamethasone-immunosuppressed rats
Assay type: functional
*1 amine or outer side, *2 acyl side, *3 side chain or, on linkers, in order; H or OH if unused. Where a SMILES comes first, the peptide text is derived from it. Bridges are numbered along the chain shown (N, C = ends). [ ]: non-standard residue; d: D form. The star is where a group is joined. Orn(4R-OH,5R-OH) = O=C([C@H](C[C@@H](O)[C@@H](O)N[*:3])N[*:1])[*:2]; hTyr(3S-OH,4S-OH) = N[C@H](C(=O)O)[C@H](O)[C@@H](O)c1ccc(O)cc1; Gln(3R-OH) = NC(=O)C[C@@H](O)[C@H](N)C(=O)O; Orn(3R-OH) = NCC[C@@H](O)[C@H](N)C(=O)O; Pro(3S-OH) = O=C(O)[C@H]1NCC[C@@H]1O; Hyp = O=C(O)[C@@H]1C[C@@H](O)CN1; X1 = CCC(C)CC(C)CCCCCCCCC(=O)*
Write the answer as a number in mg/kg, unit excluded.

response.value for CCC(C)CC(C)CCCCCCCCC(=O)N[C@H]1C[C@@H](O)[C@@H](O)NC(=O)[C@@H]2[C@@H](O)CCN2C(=O)[C@H]([C@H](O)CCN)NC(=O)[C@H]([C@H](O)[C@@H](O)c2ccc(O)cc2)NC(=O)[C@@H]2C[C@@H](O)CN2C(=O)[C@H]([C@@H](C)O)NC1=O (stereo partly drawn) (X1-[Orn(4R-OH,5R-OH)]T[Hyp][hTyr(3S-OH,4S-OH)][Orn(3R-OH)][Pro(3S-OH)]; lactam 1-C) (field: ED90) = 0.037

response.value for CCC(C)CC(C)CCCCCCCCC(=O)N[C@H]1C[C@@H](O)[C@@H](OCCN)NC(=O)[C@@H]2[C@@H](O)CCN2C(=O)[C@H]([C@H](O)CCN)NC(=O)[C@H]([C@H](O)[C@@H](O)c2ccc(O)cc2)NC(=O)[C@@H]2C[C@@H](O)CN2C(=O)[C@H]([C@@H](C)O)NC1=O (some centres undefined) (field: ED90) = 0.019

response.value for CCC(C)CC(C)CCCCCCCCC(=O)N[C@H]1C[C@@H](O)[C@@H](O)NC(=O)[C@@H]2[C@@H](O)CCN2C(=O)[C@H]([C@H](O)CC(N)=O)NC(=O)[C@H]([C@H](O)[C@@H](O)c2ccc(O)cc2)NC(=O)[C@@H]2C[C@@H](O)CN2C(=O)[C@H]([C@@H](C)O)NC1=O (stereo partly drawn) (X1-[Orn(4R-OH,5R-OH)]T[Hyp][hTyr(3S-OH,4S-OH)][Gln(3R-OH)][Pro(3S-OH)]; lactam 1-C) (field: ED90) = 0.15

response.value for CCC(C)CC(C)CCCCCCCCC(=O)N[C@H]1C[C@@H](O)[C@@H](OCCN)NC(=O)[C@@H]2[C@@H](O)CCN2C(=O)[C@H]([C@H](O)CC(N)=O)NC(=O)[C@H]([C@H](O)[C@@H](O)c2ccc(O)cc2)NC(=O)[C@@H]2C[C@@H](O)CN2C(=O)[C@H]([C@@H](C)O)NC1=O (some centres undefined) (field: ED90) = 0.037
